test system: Escherichia coli TOP10; assay: shrunken log2 fold change of peptide-encoding DNA abundance (4.5 h post-induction vs induction); higher = less antimicrobial activity (less host growth inhibition); conditions: time post-induction: 4.5 h; library: site-saturation at positions 5, 18, 19, 20
Label rule, in plain words: shrunken log2 fold change of 0.03 and up is Met, under 0.03 is Not met.

Observe how each entry below is paired with its result.
| chain | assigned_category |
| --- | --- |
| RRIRLRPPRLPRPRPRPMIFPRP | Met |
| RRIRFRPPRLPRPRPRPDNAPRP | Not met |
| RRIRTRPPRLPRPRPRPHSHPRP | Not met |
| RRIRHRPPRLPRPRPRPKHKPRP | Not met |
| RRIRFRPPRLPRPRPRPAWSPRP | Met |

Is it the case that RRIRNRPPRLPRPRPRPWVKPRP has shrunken log2 fold change reaching or exceeding 0.03? Not met

Is reported shrunken log2 fold change greater than or equal to 0.03 here: RRIRMRPPRLPRPRPRPEDAPRP Met

Does the sequence RRIRFRPPRLPRPRPRPENFPRP have recorded shrunken log2 fold change that is 0.03 or more? Not met

Is the recorded value of shrunken log2 fold change equal to or greater than 0.03 for this sequence? RRIRCRPPRLPRPRPRPSLTPRP Not met

====

test system: Escherichia coli TOP10; assay: shrunken log2 fold change of peptide-encoding DNA abundance (4.5 h post-induction vs induction); higher = less antimicrobial activity (less host growth inhibition); details: time post-induction: 4.5 h; library: site-saturation at positions 5, 18, 19, 20
We use 0.05 as the dividing line for shrunken log2 fold change: on or above the line is MET, below is NOT MET.

Before answering, review these 3 worked examples.
| chain | system_name | assigned_category |
| --- | --- | --- |
| RRIRPRPPRLPRPRPRPSEYPRP | Escherichia coli TOP10 | NOT MET |
| RRIRIRPPRLPRPRPRPREGPRP | Escherichia coli TOP10 | MET |
| RRIRTRPPRLPRPRPRPGQGPRP | Escherichia coli TOP10 | MET |

Does the sequence RRIRSRPPRLPRPRPRPIWDPRP have recorded shrunken log2 fold change that is 0.05 or more? MET

API: above_or_equal(metric=shrunken log2 fold change, cutoff=0.05) for item RRIRRRPPRLPRPRPRPGTEPRP MET

====

test system: Escherichia coli TOP10; assay: shrunken log2 fold change of peptide-encoding DNA abundance (4.5 h post-induction vs induction); higher = less antimicrobial activity (less host growth inhibition); details: time post-induction: 4.5 h; library: site-saturation at positions 5, 18, 19, 20;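 further: peptides expressed intracellularly from a pBAD plasmid library in pooled LB shake-flask culture, induced with 0.3% L-arabinose, DNA abundance read by NGS, three biological replicates, DESeq2 with apeglm shrinkage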
// classify(record): look up shrunken log2 fold change in ranges low = under -0.2, medium = from -0.2 up to 0.03, high = 0.03 and over

// known answers, use as guide
| chain | system_name | assigned_category |
| --- | --- | --- |
| RRIRDRPPRLPRPRPRPKLYPRP | Escherichia coli TOP10 | high |
| RRIRWRPPRLPRPRPRPFQMPRP | Escherichia coli TOP10 | low |
| RRIRERPPRLPRPRPRPVPPPRP | Escherichia coli TOP10 | high |
| RRIRKRPPRLPRPRPRPNLFPRP | Escherichia coli TOP10 | medium |
| RRIRDRPPRLPRPRPRPHQTPRP | Escherichia coli TOP10 | medium |
| RRIRCRPPRLPRPRPRPSPYPRP | Escherichia coli TOP10 | low |

# bin lookup: classify RRIRMRPPRLPRPRPRPCDVPRP by its shrunken log2 fold change medium

Kindly state the category for this sequence: RRIRQRPPRLPRPRPRPEGVPRP high

Band for the recorded shrunken log2 fold change of RRIRCRPPRLPRPRPRPAGCPRP ? high

Please indicate the class for RRIRIRPPRLPRPRPRPWVCPRP based on its shrunken log2 fold change. high

Which shrunken log2 fold change band matches RRIRERPPRLPRPRPRPNLKPRP ? low

For the record RRIRDRPPRLPRPRPRPIGDPRP , report the class its shrunken log2 fold change corresponds to. medium

For the record RRIRLRPPRLPRPRPRPPITPRP , report the class its shrunken log2 fold change corresponds to. low

State the class of the sequence shown: RRIRCRPPRLPRPRPRPDTTPRP medium

State the class of the sequence shown: RRIRKRPPRLPRPRPRPHHIPRP medium

Consider RRIRFRPPRLPRPRPRPEKYPRP . To which shrunken log2 fold change class does it belong? low

Which category does the recorded shrunken log2 fold change put RRIRYRPPRLPRPRPRPGIEPRP in? low

Band for RRIRCRPPRLPRPRPRPCCAPRP ? high

Pick a category. Item: RRIRIRPPRLPRPRPRPGVYPRP low

Class (by measured shrunken log2 fold change) for RRIRRRPPRLPRPRPRPCWSPRP medium

Determine which band this sequence sits in: RRIRMRPPRLPRPRPRPDFTPRP high

Assign a bin to RRIRDRPPRLPRPRPRPVQSPRP medium

Band for the recorded shrunken log2 fold change of RRIRDRPPRLPRPRPRPFKQPRP ? low
